Data credit: patent US20250206761A1

# assay.system: KRAS G12C-BRAF complex (Homo sapiens (Human), UniProt P01116+P62937, G12C)
# Sequence (P01116-2 other isoform, or with tags, fused parts or gaps G12C, one chain of several): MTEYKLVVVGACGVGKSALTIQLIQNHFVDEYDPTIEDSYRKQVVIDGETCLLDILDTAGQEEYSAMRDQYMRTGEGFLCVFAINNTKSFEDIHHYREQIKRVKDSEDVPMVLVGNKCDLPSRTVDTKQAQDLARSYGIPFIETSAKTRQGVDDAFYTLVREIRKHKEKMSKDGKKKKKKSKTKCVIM
# test.protocol: KRAS G12C-BRAF NanoBit assay
# Type: cell-based
# settings: HEK293 cells, 3 hours of incubation
property.name: IC50

CO[C@@H](C)c1ncc(N2CCOCC2)cc1-c1c2c3cc(c(F)cc3n1CC(F)(F)F)-c1csc(n1)C[C@H](NC(=O)[C@H](C(C)C)N1CC[C@]3(CCN(C(=O)[C@H](F)Cl)C3)C1=O)C(=O)N1CCC[C@H](N1)C(=O)OCC(C)(C)C2 (atropisomer, axis not shown; (M)) | 23 nM
CC(C)[C@@H](C(=O)N[C@H]1Cc2cc(O)cc(c2)-c2ccc3c(C(C)(C)C#N)cn(c3c2)CC(C)(C)COC(=O)[C@@H]2CCCN(N2)C1=O)N1CCC2(CN(C(=O)[C@H](F)Cl)C2)C1=O [RM44-A, reference compound] | 1150 nM

---

# assay.system: KRAS G12D binding to BRAF (Homo sapiens (Human), UniProt P01116+P62937, G12D)
# Sequence (P01116-2 other isoform, or with tags, fused parts or gaps G12D): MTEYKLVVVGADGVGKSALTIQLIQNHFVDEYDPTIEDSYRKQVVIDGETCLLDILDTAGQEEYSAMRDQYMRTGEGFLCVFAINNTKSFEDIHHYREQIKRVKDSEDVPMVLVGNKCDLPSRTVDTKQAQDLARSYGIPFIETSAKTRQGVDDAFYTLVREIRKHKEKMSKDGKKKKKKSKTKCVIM
# Sequence (P62937 whole entry): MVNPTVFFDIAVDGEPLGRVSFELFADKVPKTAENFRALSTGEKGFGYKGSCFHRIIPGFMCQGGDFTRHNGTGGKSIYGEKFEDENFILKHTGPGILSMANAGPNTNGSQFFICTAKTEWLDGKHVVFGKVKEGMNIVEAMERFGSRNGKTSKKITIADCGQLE
# test.protocol: KRAS-BRAF with CYPA (500 nM) interaction assay (TR-FRET), G12D
Form field: IC50 (one value per entry).
property.name: IC50 (µM)

CCn1c(-c2cc(N3CCN(C)CC3)cnc2[C@H](C)OC)c2c3cc(c(F)cc31)-c1csc(n1)C[C@H](NC(=O)[C@H](C(C)C)N(C)C(=O)C1(F)CCN(C(=O)[C@H](F)Cl)CC1)C(=O)N1CCC[C@H](N1)C(=O)OCC(C)(C)C2 (atropisomer, axis not shown; (M)) [Example 34] | 0.909
CO[C@@H](C)c1ncc(N2CCN(CC(F)(F)F)CC2)cc1-c1c2c3cc(c(F)cc3n1CC(F)(F)F)-c1csc(n1)C[C@H](NC(=O)[C@H](C(C)C)N1CCC3(CN(C(=O)[C@H](F)Cl)C3)C1=O)C(=O)N1CCC[C@H](N1)C(=O)OCC(C)(C)C2 (atropisomer, axis not shown; (M)) [Example 46] | 1.06
CCn1c(-c2cc(N3CCOCC3)cnc2[C@H](C)OC)c2c3cc(c(F)cc31)-c1csc(n1)C[C@H](NC(=O)[C@H](C(C)C)N1CCC3(CN(C(=O)[C@H](F)Cl)C3)C1=O)C(=O)N1CCC[C@H](N1)C(=O)OCC(C)(C)C2 (atropisomer, axis not shown; (M)) [Example 52] | 2.06

---

# System: AGS (ATCC-CRL-1739) cells
# test.protocol: Cell viability assay, G12D (AGS)
# Assay type: cell-based, human
# settings: Homo sapiens, KRAS cell viability, 72 hrs, Cell Counting Kit-8
# Description: The purpose of this cellular assay was to determine the effects of test compounds on the proliferation of human cancer cell lines NCI-H358 (ATCC-CRL5807) cells, AGS (ATCC-CRL-1739) cells, SW620 (ATCC-CCL-227) over a 3-day treatment period by quantifying the amount of NADPH present at endpoint using Cell Counting Kit-8. Cells were seeded at 5,000 cells/well (NCI-H358), 2,000 cells/well (AGS) 2,000 cells/well (SW620) in 96-well assay plates (Corning-3699) and incubated overnight. […]
property.name: IC50 (nM)

CO[C@@H](C)c1ncc(N2CCOCC2)cc1-c1c2c3cc(c(F)cc3n1CC(F)(F)F)-c1csc(n1)C[C@H](NC(=O)[C@H](C(C)C)N(C)C(=O)[C@H]1CCN(C(=O)[C@H](F)Cl)C1)C(=O)N1CCC[C@H](N1)C(=O)OCC(C)(C)C2 (atropisomer, axis not shown; (M)) | 283
CCn1c(-c2cc(N3CCOCC3)cnc2[C@H](C)OC)c2c3cc(c(F)cc31)-c1csc(n1)C[C@H](NC(=O)[C@H](C(C)C)N(C)C(=O)C1(F)CCN(C(=O)[C@H](F)Cl)CC1)C(=O)N1CCC[C@H](N1)C(=O)OCC(C)(C)C2 (atropisomer, axis not shown; (M)) | 72
